src = patent US20210230570

- measured_on: Factor X (FX), P00742
- Sequence (P00742 whole entry, looked up): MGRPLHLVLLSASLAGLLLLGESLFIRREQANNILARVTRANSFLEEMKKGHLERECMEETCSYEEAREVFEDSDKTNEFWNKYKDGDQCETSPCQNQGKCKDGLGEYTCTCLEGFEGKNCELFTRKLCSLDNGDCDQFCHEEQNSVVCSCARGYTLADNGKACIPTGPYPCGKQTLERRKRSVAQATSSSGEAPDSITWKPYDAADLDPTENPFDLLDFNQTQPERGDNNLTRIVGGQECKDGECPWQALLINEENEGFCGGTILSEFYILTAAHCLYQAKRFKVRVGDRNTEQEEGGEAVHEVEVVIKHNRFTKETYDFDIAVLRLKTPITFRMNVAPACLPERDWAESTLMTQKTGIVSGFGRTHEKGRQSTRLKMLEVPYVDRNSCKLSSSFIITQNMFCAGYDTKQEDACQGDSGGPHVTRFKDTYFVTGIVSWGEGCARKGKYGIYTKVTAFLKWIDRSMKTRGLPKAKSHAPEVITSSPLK
Friendly reminder: kcat below 8 s⁻¹ is fulfilled, at or above is not fulfilled.

Exam item: kcat strictly < 8 s⁻¹ for this protein? FIXa-Y155F/K247N/N249S/R318Y/R338E/T343R/R403E (protein) chain 1: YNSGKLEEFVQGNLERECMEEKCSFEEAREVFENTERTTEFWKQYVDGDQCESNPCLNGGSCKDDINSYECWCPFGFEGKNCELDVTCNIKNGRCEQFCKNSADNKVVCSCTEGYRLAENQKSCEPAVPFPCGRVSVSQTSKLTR chain 2: VVGGEDAKPGQFPWQVVLNGKVDAFCGGSIVNEKWIVTAAHCVETGVKITVVAGEHNIEETEHTEQNRSVIRIIPHHNYNAAINKYNHDIALLELDEPLVLNSYVTPICIADKEYTNIFLKFGSGYVSGWGRVFHKGYSALVLQYLRVPLVDRATCLESTKFRIYNNMFCAGFHEGGRDSCQGDSGGPHVTEVEGTSFLTGIISWGEECAMKGKYGIYTKVSEYVNWIKEKTKLT
Marked response: not fulfilled

Exam item: Is kcat strictly under 8 s⁻¹ for the entry FIXa-Y155F/K247N/N249S/R318Y/R338E/T343R/E410N (protein) chain 1: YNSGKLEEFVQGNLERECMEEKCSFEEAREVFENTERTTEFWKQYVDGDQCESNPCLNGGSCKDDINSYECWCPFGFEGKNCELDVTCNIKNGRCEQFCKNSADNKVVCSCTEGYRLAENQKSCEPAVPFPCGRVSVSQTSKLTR chain 2: VVGGEDAKPGQFPWQVVLNGKVDAFCGGSIVNEKWIVTAAHCVETGVKITVVAGEHNIEETEHTEQNRSVIRIIPHHNYNAAINKYNHDIALLELDEPLVLNSYVTPICIADKEYTNIFLKFGSGYVSGWGRVFHKGYSALVLQYLRVPLVDRATCLESTKFRIYNNMFCAGFHEGGRDSCQGDSGGPHVTEVEGTSFLTGIISWGEECAMKGKYGIYTKVSRYVNWIKNKTKLT ?
Marked response: fulfilled

Exam item: Strictly below 8 s⁻¹ in kcat? FIXa-Y155F/K247N/N249S/R318Y/E410N (protein) chain 1: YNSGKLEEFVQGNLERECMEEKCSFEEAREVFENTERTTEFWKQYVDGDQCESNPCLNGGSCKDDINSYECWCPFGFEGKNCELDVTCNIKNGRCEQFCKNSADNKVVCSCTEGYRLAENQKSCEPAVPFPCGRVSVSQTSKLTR chain 2: VVGGEDAKPGQFPWQVVLNGKVDAFCGGSIVNEKWIVTAAHCVETGVKITVVAGEHNIEETEHTEQNRSVIRIIPHHNYNAAINKYNHDIALLELDEPLVLNSYVTPICIADKEYTNIFLKFGSGYVSGWGRVFHKGYSALVLQYLRVPLVDRATCLRSTKFTIYNNMFCAGFHEGGRDSCQGDSGGPHVTEVEGTSFLTGIISWGEECAMKGKYGIYTKVSRYVNWIKNKTKLT
Marked response: fulfilled

Exam item: Please determine if FIXa-Y155F/K247N/N249S/T343R/R403E/E410N (protein) chain 1: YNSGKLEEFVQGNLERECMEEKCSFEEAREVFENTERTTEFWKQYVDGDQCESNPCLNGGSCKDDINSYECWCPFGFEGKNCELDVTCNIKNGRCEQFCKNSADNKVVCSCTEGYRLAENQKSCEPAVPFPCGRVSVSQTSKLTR chain 2: VVGGEDAKPGQFPWQVVLNGKVDAFCGGSIVNEKWIVTAAHCVETGVKITVVAGEHNIEETEHTEQNRSVIRIIPHHNYNAAINKYNHDIALLELDEPLVLNSYVTPICIADKEYTNIFLKFGSGYVSGWGRVFHKGRSALVLQYLRVPLVDRATCLRSTKFRIYNNMFCAGFHEGGRDSCQGDSGGPHVTEVEGTSFLTGIISWGEECAMKGKYGIYTKVSEYVNWIKNKTKLT is below 8 s⁻¹ in terms of kcat.
Marked response: not fulfilled
